Listed next: entries and their corresponding TGI.
- System: EKVX NSCLC
- experimental-details: NCI tumour cell line growth inhibition, 48 h
assay-metric: TGI

C/C(=N\Nc1nc2ccccc2s1)c1cc2ccccc2cn1    69.4 µM
Cc1ccc(C2NC(=O)c3ccccc3N2)c(C)c1 (centres undefined)    > 100 µM
O=C1CSC(c2ccc(Cl)cc2Cl)N1c1ccc(Oc2ccc(Cl)cc2)c(Cl)c1 (centres undefined)    74 µM
C=C=CC(NC(=O)c1ccccc1)(C(=O)O)C(F)(F)F (centres undefined)    > 100 µM
O=C(/C=C(\C(=O)c1cccs1)c1cccs1)c1ccc(C(=O)/C=C(\C(=O)c2cccs2)c2cccs2)cc1    > 100 µM
NC(Cc1ccc2nc3c4ccccc4c(=O)cc-3oc2c1)C(=O)O (centres undefined)    > 100 µM
CC1=CP(=O)(c2c(C(C)C)cc(C(C)C)cc2C(C)C)CCC1Cl (centres undefined)    32.6 µM
CCCCNc1ccc(Nc2ccccc2)cc1    > 100 µM
C=C1C(=O)O[C@H]2C[C@@H]1[C@@H](O)[C@H](O)[C@@H](C)CCCC(C)=CCC[C@@]2(C)O    > 100 µM
Cn1cc(S(=O)(=O)NC(=O)Nc2ccc(Cl)cc2)c(=O)c2ccc(F)cc21    > 100 µM
CCOc1ccc2c(c1)c(CC(=O)O)cn2C    > 100 µM
CCC1(CN(C)C)CC/C(=C\c2ccc(OC)c(OC)c2)C1=O (centres undefined)    > 100 µM
COCCOCCOCCOc1cccc2c1C(=O)c1cccc(OCCOCCOCCOC)c1C2=O    > 100 µM
CN(CCC(=O)/C(=C\c1ccccc1)c1ccc(Cl)cc1)Cc1ccccc1    18.8 µM
OC1(c2ccc(Cl)cc2)c2ccccc2-c2nc3ccccc3n21 (centres undefined)    > 100 µM
NC1(Cc2ccc(Cl)cc2)CCN(c2ncnc3[nH]ccc23)CC1    18.5 µM
CCN1CCC(CNC(=O)c2ccc(N)cc2)N1CC (centres undefined)    > 100 µM
CC(=O)c1ccc(NC(=O)C(=O)C(C#N)CC(C)(C)C=O)cc1 (centres undefined)    > 100 µM
Cc1nc2ccccc2nc1N=Nc1ccccc1    > 100 µM

---

- Test system: HL-60(TB) leukemia
- experimental-details: NCI tumour cell line growth inhibition, 48 h
assay-metric: TGI

C/C(=C/CC[C@]1(CO)CC[C@]2(C)[C@H](CC[C@@H]3[C@@]4(C)CC[C@H](OC5OC(CO)C(O)C(O)C5OC5OC(CO)C(O)C(O)C5O)C(C)(C)[C@@H]4CC[C@]32C)[C@H]1O)CO (stereo partly specified)    > 100 µM
Cc1ccc(S(=O)(=O)N/N=C/C(C)C)cc1    > 100 µM
Cc1ccc(NC(=O)CCc2n[nH]c(=S)o2)cc1    > 100 µM
NC(CSSCC(N)C(=O)O)C(=O)O (stereo unspecified)    > 100 µM
CC(C)(C)N/N=C(\C(=O)NC1=C(Cl)C(=O)c2ccccc2C1=O)C1C=CCS1(=O)=O (stereo unspecified)    > 100 µM
CC1(C)OC2OC(C(COS(=O)(=O)C(F)(F)F)N=[N+]=[N-])C(OC(=O)c3ccccc3)C2O1 (stereo unspecified)    > 100 µM
O=C1CSC(c2cccc(Cl)c2)N1c1ccc(-c2ccc(-n3c(-c4ccccc4)nc4ccccc4c3=O)cc2)cc1 (stereo unspecified)    > 100 µM
O=C1C(c2c(O)[nH]c3ccc(Br)cc23)=Nc2ccc(Br)cc21    > 100 µM
C[C@H](CCC1SC1(C)C)C1CCC2(C)C3=C(CC[C@]12C)[C@@]1(C)CC[C@H](O)C(C)(C)C1CC3 (stereo partly specified)    > 100 µM
OC1(c2ccc(Cl)cc2)c2ccccc2-c2nc3ccccc3n21 (stereo unspecified)    > 100 µM
CC(=O)NC1=NC(=O)/C(=C/c2ccc(/C=C3/C(=O)N=C(NC(C)=O)N3C)cc2)N1C    > 100 µM
CCC(C)C(=O)OCC(=O)c1ccc(-c2ccccc2)cc1 (stereo unspecified)    > 100 µM
COc1cccc(SSc2cccc(OC)c2C(=O)O)c1C(=O)O    > 100 µM
Cc1ccc2nc(-c3ccc(C(C)(C)C)cc3)oc(=O)c2c1    40 µM
CC(=O)NC(C=O)C(O[C@H](C)C(=O)NC(C)C(=O)NC(CCC(N)=O)C(=O)OCc1ccccc1)C(O)C(O)COC(=O)CCNc1c2ccccc2nc2cccc([N+](=O)[O-])c12 (stereo partly specified)    31.8 µM
NC(=O)c1sc(-n2cnc3cc(C(F)(F)F)ccc32)cc1OCc1ccccc1Br    > 25 µM
O=C1CSC(c2ccc(Cl)cc2Cl)N1c1ccc(Oc2ccc(Cl)cc2)c(Cl)c1 (stereo unspecified)    48.3 µM
Cc1nc2cc(Nc3ccccc3C(=O)O)ccc2s1    > 100 µM
Cc1nc2ccccc2nc1N=Nc1ccccc1    56.6 µM
COC(=O)[C@H](Cc1cn(C)cn1)NC(=O)[C@H](C)NC(=O)Nc1cc(C(F)(F)F)cc(C(F)(F)F)c1    > 10 µM
CC1=CP(=O)(c2c(C(C)C)cc(C(C)C)cc2C(C)C)CCC1Cl (stereo unspecified)    42.8 µM
Cn1cc(S(=O)(=O)NC(=O)Nc2ccc(Cl)cc2)c(=O)c2ccc(F)cc21    > 100 µM
C/C(=N\O)c1cccc[n+]1Cc1ccccc1    > 100 µM
O=C1/C(=C/c2ccc(O)cc2)COc2ccc(O)c(O)c21    7.41 µM
Cn1cc(C(=O)c2ccccc2)cc(C(=O)c2ccccc2)c1=O    > 100 µM
CC1=Nc2c([nH]c(=S)[nH]c2=O)NC(c2c(Cl)cccc2Cl)C1 (stereo unspecified)    2.54 µM
C[C@@H](CO)NC(=O)c1cc(-c2ccc(Cl)cc2)nn(-c2cnn(C)c2)c1=O    42.3 µM
O=C(O)[C@H](CCC[C@H]1C(=O)O[C@H](c2ccccc2)[C@H](c2ccccc2)N1C(=O)OCc1ccccc1)N[C@@H](c1ccccc1)[C@H](O)c1ccccc1    38.8 µM
CCOC(=O)c1c(SC(=O)c2ccc(OC)cc2)n(-c2ccccc2)c(=S)n(-c2ccccc2)c1=O    70.2 µM
COc1ccc(C(=O)C#Cc2c[nH]c(=O)[nH]c2=O)cc1    23.3 µM
O=C(CCCN1CCC(C(O)c2ccc(F)cc2)CC1)c1ccc(F)cc1 (stereo unspecified)    120 µM
CC(Oc1ccccc1)C(=O)NNC(=O)OC(C)(C)C (stereo unspecified)    > 100 µM
O=c1cccc(-c2cccc(=O)[nH]2)[nH]1    > 100 µM
N#CC1=C(O)NC(O)=C(C#N)C1c1ccc(C2C(C#N)=C(O)NC(O)=C2C#N)cc1    75.3 µM
COc1ccccc1C(=O)NCC1CCCN2CCCCC12 (stereo unspecified)    > 100 µM
CC1(C)O[C@@H]2C[C@H]3[C@@H]4C[C@H](F)C5=CC(=O)C=C[C@]5(C)[C@@]4(F)[C@@H](O)C[C@]3(C)[C@]2(C(=O)CO)O1    > 100 µM

Values were extracted from PubChem BioAssay (NCI).
